B1: Zinc finger homeobox protein 4, residues 2562 to 2617; numbered along this chain, Q86UP3 (parent)
chain: RLRTTITPEQLEILYEKYLLDSNPTRKMLDHIAREVGLKKRVVQVWFQNTRARERK

Variants of: B1
Assay: abundance fitness (aPCA) (normalised: wild type 0, dead -1); higher = more abundant; growth selection in yeast, the domain comes from the species named
Conditions: Homo sapiens
Let's look at some variants and their measured abundance fitness.

>  <Variant spec>
R26K

>  <abundance fitness>
0.1

$$$$
>  <Variant spec>
K27A

>  <abundance fitness>
0.169

$$$$
>  <Variant spec>
K27T

>  <abundance fitness>
-0.147

$$$$
>  <Variant spec>
R41P

>  <abundance fitness>
0.246

$$$$
>  <Variant spec>
L29F

>  <abundance fitness>
-0.049

$$$$
>  <Variant spec>
V36N

>  <abundance fitness>
-0.415

$$$$
>  <Variant spec>
K17M

>  <abundance fitness>
-0.024

$$$$
>  <Variant spec>
K27L

>  <abundance fitness>
-0.019

$$$$
>  <Variant spec>
P24L

>  <abundance fitness>
-0.639

$$$$
>  <Variant spec>
K27G

>  <abundance fitness>
0.074

$$$$
>  <Variant spec>
I32F

>  <abundance fitness>
-0.377

$$$$
>  <Variant spec>
L19N

>  <abundance fitness>
-0.091

$$$$
>  <Variant spec>
L38Q

>  <abundance fitness>
-0.755

$$$$
>  <Variant spec>
L19W

>  <abundance fitness>
-0.229

$$$$
>  <Variant spec>
K27E

>  <abundance fitness>
0.147

$$$$
>  <Variant spec>
L38S

>  <abundance fitness>
-0.846

$$$$
>  <Variant spec>
P24I

>  <abundance fitness>
-0.415

$$$$
>  <Variant spec>
R34S

>  <abundance fitness>
0.17

$$$$
>  <Variant spec>
L29Y

>  <abundance fitness>
-0.239

$$$$
>  <Variant spec>
L19E

>  <abundance fitness>
-0.136

$$$$
>  <Variant spec>
K17Y

>  <abundance fitness>
0.767

$$$$
>  <Variant spec>
M28V

>  <abundance fitness>
-0.119

$$$$
>  <Variant spec>
M28I

>  <abundance fitness>
-0.101

$$$$
>  <Variant spec>
I32C

>  <abundance fitness>
-0.518

$$$$
>  <Variant spec>
L38W

>  <abundance fitness>
-0.884

$$$$
>  <Variant spec>
Y18E

>  <abundance fitness>
-0.943

$$$$
>  <Variant spec>
L38D

>  <abundance fitness>
-0.718

$$$$
>  <Variant spec>
Y18S

>  <abundance fitness>
-0.975

$$$$
>  <Variant spec>
E35Q

>  <abundance fitness>
-0.283

$$$$
>  <Variant spec>
R26W

>  <abundance fitness>
0.237

$$$$
>  <Variant spec>
L29M

>  <abundance fitness>
-0.429

$$$$
>  <Variant spec>
S22K

>  <abundance fitness>
-0.305

$$$$
>  <Variant spec>
E35A

>  <abundance fitness>
-0.235

$$$$
>  <Variant spec>
N23K

>  <abundance fitness>
-0.054

$$$$
>  <Variant spec>
M28G

>  <abundance fitness>
-0.108

$$$$
>  <Variant spec>
K17R

>  <abundance fitness>
-0.258

$$$$
>  <Variant spec>
R41A

>  <abundance fitness>
0.257

$$$$
>  <Variant spec>
Y18L

>  <abundance fitness>
-0.439

$$$$
>  <Variant spec>
I32R

>  <abundance fitness>
-1.08

$$$$
>  <Variant spec>
L38K

>  <abundance fitness>
-0.254

$$$$
>  <Variant spec>
M28F

>  <abundance fitness>
-0.591

$$$$
>  <Variant spec>
Y18V

>  <abundance fitness>
-0.764

$$$$
>  <Variant spec>
M28K

>  <abundance fitness>
-0.582

$$$$
